# test target: T1, mouse programmed cell death protein 1 Fc fusion protein (mPD-1-Fc), mPD-1 C60S (aa 25-167) (Mus musculus, UniProt Q02242, stabilised)
# T1 construct: not cleaved; source: Expi293F, purified (Protein A, SEC; dimeric fraction); not shown: Fc (human), C-terminal, kept
# measurement notes: SPR; Carterra LSA; Fab from the ammonium sulfate precipitate of the culture supernatant immobilised on a NiHC200M chip; hPD-1 (1-1024 nM) or mPD-1-Fc (4-1024 nM) as analyte, fourfold dilution series, no regeneration; HBS-EP pH 7.4, 25 °C; medians over the spots of a construct, KD = koff/kon
# condition info: one partner purified
Kd values, listed per item
The figure you give is taken to be in nM; do not add the unit.

Noted for toripalimab Fab L.V99W (Fab, V domains shown, as the heavy chain of Sm3; light chain of Sm3 with this change; numbers count from the chain's first residue; source: Brevibacillus, culture supernatant (ammonium sulfate precipitate); not shown: 6xHis, C-terminal, kept; 6xHN, C-terminal, kept) VH: QGQLVQSGAEVKKPGASVKVSCKASGYTFTDYEMHWVRQAPIHGLEWIGVIESETGGTAYNQKFKGRVTITADKSTSTAYMELSSLRSEDTAVYYCAREGITTVATTYYWYFDVWGQGTTVTVSS VL: DVVMTQSPLSLPVTLGQPASISCRSSQSIVHSNGNTYLEWYLQKPGQSPQLLIYKVSNRFSGVPDRFSGSGSGTDFTLKISRVEAEDVGVYYCFQGSHWPLTFGQGTKLEIK : its Kd reads 254

Sure, the documented Kd for toripalimab Fab L.V56A (Fab, V domains shown, as the heavy chain of Sm3; light chain of Sm3 with this change; numbers count from the chain's first residue; source: Brevibacillus, culture supernatant (ammonium sulfate precipitate); not shown: 6xHis, C-terminal, kept; 6xHN, C-terminal, kept) VH: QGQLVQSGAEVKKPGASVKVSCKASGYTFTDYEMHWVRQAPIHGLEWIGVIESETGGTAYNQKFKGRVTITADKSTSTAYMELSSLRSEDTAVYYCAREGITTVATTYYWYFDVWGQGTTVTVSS VL: DVVMTQSPLSLPVTLGQPASISCRSSQSIVHSNGNTYLEWYLQKPGQSPQLLIYKASNRFSGVPDRFSGSGSGTDFTLKISRVEAEDVGVYYCFQGSHVPLTFGQGTKLEIK is 202

// recorded Kd for toripalimab Fab L.G34A (Fab, V domains shown, as the heavy chain of Sm3; light chain of Sm3 with this change; numbers count from the chain's first residue; source: Brevibacillus, culture supernatant (ammonium sulfate precipitate); not shown: 6xHis, C-terminal, kept; 6xHN, C-terminal, kept) VH: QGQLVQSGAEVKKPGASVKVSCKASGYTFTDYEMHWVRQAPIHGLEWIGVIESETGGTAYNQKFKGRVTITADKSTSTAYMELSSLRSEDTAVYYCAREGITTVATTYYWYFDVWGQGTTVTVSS VL: DVVMTQSPLSLPVTLGQPASISCRSSQSIVHSNANTYLEWYLQKPGQSPQLLIYKVSNRFSGVPDRFSGSGSGTDFTLKISRVEAEDVGVYYCFQGSHVPLTFGQGTKLEIK : 202

Entry toripalimab Fab L.R24A (Fab, V domains shown, as the heavy chain of Sm3; light chain of Sm3 with this change; numbers count from the chain's first residue; source: Brevibacillus, culture supernatant (ammonium sulfate precipitate); not shown: 6xHis, C-terminal, kept; 6xHN, C-terminal, kept) VH: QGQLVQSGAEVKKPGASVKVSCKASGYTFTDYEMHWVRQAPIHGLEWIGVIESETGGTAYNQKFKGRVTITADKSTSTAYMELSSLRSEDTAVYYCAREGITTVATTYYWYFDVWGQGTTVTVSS VL: DVVMTQSPLSLPVTLGQPASISCASSQSIVHSNGNTYLEWYLQKPGQSPQLLIYKVSNRFSGVPDRFSGSGSGTDFTLKISRVEAEDVGVYYCFQGSHVPLTFGQGTKLEIK ; Kd = 198

Entry under test: toripalimab Fab H.V114Y (Fab, V domains shown, heavy chain of Sm3 with this change; numbers count from the chain's first residue; as the light chain of Sm3; source: Brevibacillus, culture supernatant (ammonium sulfate precipitate); not shown: 6xHis, C-terminal, kept; 6xHN, C-terminal, kept) VH: QGQLVQSGAEVKKPGASVKVSCKASGYTFTDYEMHWVRQAPIHGLEWIGVIESETGGTAYNQKFKGRVTITADKSTSTAYMELSSLRSEDTAVYYCAREGITTVATTYYWYFDYWGQGTTVTVSS VL: DVVMTQSPLSLPVTLGQPASISCRSSQSIVHSNGNTYLEWYLQKPGQSPQLLIYKVSNRFSGVPDRFSGSGSGTDFTLKISRVEAEDVGVYYCFQGSHVPLTFGQGTKLEIK . Its Kd was 235
